Provide the reported self-splicing fitness (ln) of each item.
# Assay summary: self-splicing fitness, log relative to wild type (ln ratio); higher = more splicing; Tetrahymena group I intron in knt gene, E. coli kanamycin selection, DiMSum; sequences stand for … in CUCUCU…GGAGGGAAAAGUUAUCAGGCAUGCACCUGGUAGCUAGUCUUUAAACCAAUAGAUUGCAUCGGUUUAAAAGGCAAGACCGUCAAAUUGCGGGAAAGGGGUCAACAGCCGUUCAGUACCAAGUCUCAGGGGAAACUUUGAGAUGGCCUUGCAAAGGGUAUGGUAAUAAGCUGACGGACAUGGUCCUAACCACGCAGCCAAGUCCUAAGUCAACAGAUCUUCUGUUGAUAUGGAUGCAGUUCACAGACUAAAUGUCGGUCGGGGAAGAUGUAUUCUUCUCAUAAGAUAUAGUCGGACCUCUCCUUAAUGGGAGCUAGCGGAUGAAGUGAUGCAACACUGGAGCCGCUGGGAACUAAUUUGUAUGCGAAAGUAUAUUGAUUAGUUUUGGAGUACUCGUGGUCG;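 further: selection with 25 µg/mL kanamycin versus none on LB agar overnight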
# Details: 37 °C
Answers are plain numbers.

// solved cases for self-splicing fitness (ln) follow
[
  {
    "Item sequence": "AGUAAGCAAUAUUACGUCGA",
    "self-splicing fitness (ln)": -1.61
  },
  {
    "Item sequence": "GCAUAGCAAUAUUACGGGGC",
    "self-splicing fitness (ln)": -2.72
  },
  {
    "Item sequence": "GCGUAGCAAUAUUACGUACA",
    "self-splicing fitness (ln)": -1.23
  }
]

Provide reported self-splicing fitness (ln) for each item, in the same order as listed.
1. GACAAGCAAUAUUACGCUCA
2. CCUAAGCAAUAUUACGCACU

## Output
[0.274, -2.96]

Quick request: self-splicing fitness (ln) for each listed item, please.
1. UAUCAGCAAUAUUACGCAAU
2. CACCAGCAAUAUUACGAAAU
3. ACGGAGCAAUAUUACGACCG

## Output
1. -0.74
2. -2.29
3. -1.78

# return self-splicing fitness (ln) for each item in the list
1. GCUAAGCAAUAUUACGCGGC
2. CGCGAGCAAUAUUACGUCCU
3. CAGUAGCAAUAUUACGCACU
4. GUGCAGCAAUAUUACGUUUG
5. CGUAAGCAAUAUUACGGAGU
6. UUGAAGCAAUAUUACGAAGA
7. UUUAAGCAAUAUUACGGUAU
8. GCCGAGCAAUAUUACGUGCA

## Output
1: -2.64; 2: -1.69; 3: -1.34; 4: -2.63; 5: -2.89; 6: -0.181; 7: -0.94; 8: -2.24

Quick request: self-splicing fitness (ln) for each listed item, please.
1. UGCGAGCAAUAUUACGCUUC
2. GAGCAGCAAUAUUACGCGCA
3. GGGUAGCAAUAUUACGUGCU
4. CUCCAGCAAUAUUACGAAGC
5. CAGCAGCAAUAUUACGCGAA
6. GCAGAGCAAUAUUACGAGCG
7. GCUAAGCAAUAUUACGACAG
8. CAGUAGCAAUAUUACGAAGU

## Output
1. -3.67
2. 0.461
3. -0.399
4. -2.6
5. -1.82
6. -1.41
7. -2.51
8. -1.82

Fill in self-splicing fitness (ln) for each of the 2 sequences listed.
1. GAUCAGCAAUAUUACGGAAA
2. ACACAGCAAUAUUACGGUCG

## Output
[-0.212, -0.473]

Go through the list and state self-splicing fitness (ln) for each entry.
1. GUCGAGCAAUAUUACGGCUU
2. UAAAAGCAAUAUUACGCUGG
3. CCAAAGCAAUAUUACGCUGC
4. GUUUAGCAAUAUUACGAGUG
5. AAUGAGCAAUAUUACGCGAC
6. ACUCAGCAAUAUUACGGCCA

## Output
[-0.65, -1.65, -1.8, -0.634, -1.67, -0.0774]

Batch request: self-splicing fitness (ln) per item, same order as input.
1. CGGUAGCAAUAUUACGGAGA
2. GUAAAGCAAUAUUACGACAU

## Output
1. -2.72
2. 0.348

* * *

For each of the sequences below, state its self-splicing fitness (ln).
# Assay summary: self-splicing fitness, log relative to wild type (ln ratio); higher = more splicing; Tetrahymena group I intron in knt gene, E. coli kanamycin selection, DiMSum; sequences stand for … in CUCUCU…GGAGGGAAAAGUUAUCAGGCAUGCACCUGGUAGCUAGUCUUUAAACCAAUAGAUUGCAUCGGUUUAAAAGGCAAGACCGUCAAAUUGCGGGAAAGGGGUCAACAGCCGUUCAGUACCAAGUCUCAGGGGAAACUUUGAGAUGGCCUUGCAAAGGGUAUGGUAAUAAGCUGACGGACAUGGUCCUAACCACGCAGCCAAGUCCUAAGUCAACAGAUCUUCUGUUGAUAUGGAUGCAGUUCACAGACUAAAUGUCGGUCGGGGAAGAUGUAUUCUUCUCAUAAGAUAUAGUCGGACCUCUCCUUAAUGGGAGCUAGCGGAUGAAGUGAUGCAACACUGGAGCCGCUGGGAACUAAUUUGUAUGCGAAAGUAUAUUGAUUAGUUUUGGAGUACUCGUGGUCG
# Details: 37 °C
One number for each entry.

List self-splicing fitness (ln) for every entry below, keeping the order given.
1. UCAUAGCAAUAUUACGUAGG
2. GAUAAGCAAUAUUACGCCAU
3. AUAUAGCAAUAUUACGCUCG
4. ACACAGCAAUAUUACGUGGU

## Output
[-1.56, -1.72, 0.0571, -2.82]

// each sequence listed below needs its self-splicing fitness (ln)
1. GCUUAGCAAUAUUACGUGCU
2. ACCUAGCAAUAUUACGGUCG
3. GCCGAGCAAUAUUACGAAUU
4. AGCUAGCAAUAUUACGCAGC
5. AACUAGCAAUAUUACGAGCU
6. UUUGAGCAAUAUUACGGUAA
7. UACAAGCAAUAUUACGUCGA

## Output
[-1.41, -2.11, -2.21, -0.17, -0.511, -1.94, -0.266]

Below are some sequences; for each one, tell me its self-splicing fitness (ln).
1. UAACAGCAAUAUUACGCAAA
2. GCAAAGCAAUAUUACGGUUG
3. AUAAAGCAAUAUUACGAGUA
4. GUCUAGCAAUAUUACGCGCU
5. AGGUAGCAAUAUUACGCUAU
6. UACCAGCAAUAUUACGUUAC
7. CACCAGCAAUAUUACGGCCG

## Output
1: -2.3; 2: -2.04; 3: -0.205; 4: -0.353; 5: -3.13; 6: -2.26; 7: 0.251

* * *

Kindly supply the reported self-splicing fitness (ln) values for the records listed here.
# Assay summary: self-splicing fitness, log relative to wild type (ln ratio); higher = more splicing; Tetrahymena group I intron in knt gene, E. coli kanamycin selection, DiMSum; sequences stand for … in CUCUCU…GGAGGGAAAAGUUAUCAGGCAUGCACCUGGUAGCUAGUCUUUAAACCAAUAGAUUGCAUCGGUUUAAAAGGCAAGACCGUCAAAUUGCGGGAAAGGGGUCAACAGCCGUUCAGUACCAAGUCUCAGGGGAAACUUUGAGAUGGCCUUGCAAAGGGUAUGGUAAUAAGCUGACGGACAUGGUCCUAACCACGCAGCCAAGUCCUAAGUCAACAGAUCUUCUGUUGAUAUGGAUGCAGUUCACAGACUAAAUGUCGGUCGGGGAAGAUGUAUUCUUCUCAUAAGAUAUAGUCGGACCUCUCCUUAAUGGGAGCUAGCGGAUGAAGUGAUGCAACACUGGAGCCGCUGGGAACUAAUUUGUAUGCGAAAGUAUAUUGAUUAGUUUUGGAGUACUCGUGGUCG
# Details: 37 °C
Give bare numbers.

Answered examples (3):
[
  {
    "Item sequence": "UGCCAGCAAUAUUACGCUAG",
    "Value reported": -1.35
  },
  {
    "Item sequence": "AAAUAGCAAUAUUACGUGGU",
    "Value reported": -2.84
  },
  {
    "Item sequence": "GCGUAGCAAUAUUACGCAUC",
    "Value reported": -1
  }
]

Record self-splicing fitness (ln) per entry; entries follow.
1. CUACAGCAAUAUUACGUAAA
2. ACUAAGCAAUAUUACGAGGG

## Output
-1.92
-2.31

# batch: return self-splicing fitness (ln) for each of the 3 sequences below
1. GCUGAGCAAUAUUACGCAGG
2. AGAAAGCAAUAUUACGAUGC
3. CGCCAGCAAUAUUACGUAGU

## Output
1: -1.56; 2: -1.38; 3: -1.18

* * *

# Assay summary: self-splicing fitness, log relative to wild type (ln ratio); higher = more splicing; Tetrahymena group I intron in knt gene, E. coli kanamycin selection, DiMSum; sequences stand for … in CUCUCU…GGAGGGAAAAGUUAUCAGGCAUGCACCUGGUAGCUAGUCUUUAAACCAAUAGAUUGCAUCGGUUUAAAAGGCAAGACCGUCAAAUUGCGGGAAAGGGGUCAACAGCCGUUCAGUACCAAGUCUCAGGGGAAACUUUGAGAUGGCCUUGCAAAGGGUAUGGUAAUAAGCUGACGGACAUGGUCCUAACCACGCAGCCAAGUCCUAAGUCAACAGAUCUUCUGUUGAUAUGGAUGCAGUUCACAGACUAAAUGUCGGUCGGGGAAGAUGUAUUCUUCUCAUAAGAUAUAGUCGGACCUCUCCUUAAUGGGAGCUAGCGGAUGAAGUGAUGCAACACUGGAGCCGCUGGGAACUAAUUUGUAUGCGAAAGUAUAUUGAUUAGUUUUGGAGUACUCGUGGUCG
# Details: 37 °C
Observable: self-splicing fitness (ln)
Answers are plain numbers.

As a guide, the following entries are already answered.
[
  {
    "Item sequence": "CCACAGCAAUAUUACGAAUU",
    "self-splicing fitness (ln)": -2.39
  },
  {
    "Item sequence": "CCGAAGCAAUAUUACGUCCU",
    "self-splicing fitness (ln)": -1.89
  },
  {
    "Item sequence": "AGCUAGCAAUAUUACGUUCG",
    "self-splicing fitness (ln)": -2.41
  },
  {
    "Item sequence": "AAGAAGCAAUAUUACGCCUC",
    "self-splicing fitness (ln)": -1.85
  }
]

Return reported self-splicing fitness (ln) values for all items listed beneath this line.
1. UAAUAGCAAUAUUACGGACU
2. GUAGAGCAAUAUUACGGUAA
3. AACAAGCAAUAUUACGUGGA
4. GAGGAGCAAUAUUACGUGAC

## Output
1: -1.43; 2: -1.3; 3: -1.51; 4: -0.137

Below are some sequences; for each one, tell me its self-splicing fitness (ln).
1. AGACAGCAAUAUUACGGAAA
2. CAACAGCAAUAUUACGGAAA
3. ACGAAGCAAUAUUACGUCAG
4. ACAAAGCAAUAUUACGGUGA
5. CACGAGCAAUAUUACGGUGU

## Output
1: -1.48; 2: -2.27; 3: -1.1; 4: -0.535; 5: -2.33

Your task in this section: give self-splicing fitness (ln) for each listed record.
1. CAGAAGCAAUAUUACGUAGA
2. UGUAAGCAAUAUUACGUGUC
3. UGGUAGCAAUAUUACGGGAA
4. CUCAAGCAAUAUUACGGGGC
5. AGCCAGCAAUAUUACGCGUG

## Output
-0.762
-2.01
-1.6
-3.31
-1.35

Below are 3 sequences. Give each one its self-splicing fitness (ln).
1. UGAGAGCAAUAUUACGACGG
2. UCACAGCAAUAUUACGAAGG
3. UAUUAGCAAUAUUACGAAUG

## Output
1: -2.56; 2: -0.755; 3: -0.322
